ASSAY ENDPOINT: melting point

Some solved cases for reference:
COMPOUND | MEASURED VALUE
O=C(Nc1nc(-c2ccccc2)co1)c1ccccn1 [Compound 11b] | 107 to 109 °C
O=C(Nc1nc(-c2ccccc2)cs1)c1ccnc(Cl)c1 [Compound 15a] | 158 to 162 °C
Cc1cc(C(=O)Nc2ncco2)cc(Cl)n1 | 149 to 153 °C
O=C(Nc1nc(-c2ccccc2)co1)c1ccccc1 [Compound 20b] | 143 to 145 °C
O=C(Nc1ncco1)c1ccncc1 | 175 to 177 °C

// next item, melting point requested
### Prompt Value lookup for melting point; key = O=C(Nc1nc(-c2ccccc2)co1)c1cnc(Cl)cn1 [Compound 18b]
### Response 203 to 207 °C

====

- Test system: Mtb laboratory ID IZAK
- Type: cell-based, Mycobacterium tuberculosis
- APPLIED CONDITIONS: MDR strain IZAK, CLSI breakpoints 2020
Collected Concentration (susceptibility profile) values appear next to each entry.
State just the number; it will be interpreted in µg/mL.

CHEMICAL SMILES | ASSAYED SYSTEM | Concentration (susceptibility profile) / µg/mL
[H]/N=C(/N)N[C@H]1[C@H](O)[C@@H](O)[C@H](O[C@@H]2O[C@@H](C)[C@](O)(C=O)[C@H]2O[C@@H]2O[C@@H](CO)[C@H](O)[C@@H](O)[C@@H]2NC)[C@@H](N/C(N)=N\[H])[C@@H]1O | Mtb laboratory ID IZAK | 4

// next item, Concentration (susceptibility profile) requested
### Prompt Tell me reported Concentration (susceptibility profile) for CC[C@@H](CO)NCCN[C@@H](CC)CO , tested with Mtb laboratory ID IZAK.
### Response 0.5

====

- TEST SUMMARY: RP-UHPLC lipophilicity parameter log k’w
- Format: physicochemical
- APPLIED CONDITIONS: experimental lipophilicity parameter
- From the text: Lipophilicity and water solubility of the drug candidates are important parameters as they are often directly related to their ADME properties in the organism. Lipophilicity is usually expressed as the logarithm of the partition coefficient in n-octanol/water (log P). […] To investigate the changes in lipophilicity upon introduction of oxazole in the title compounds, we determined the log k’w of all derivatives and compared respective values among the pairs. […]
Collected logkw values appear next to each entry.

Some solved cases for reference:
MOLECULE | logkw
O=C(Nc1nc(-c2ccccc2)co1)c1ccccn1 [Compound 11b] | 2.038
O=C(Nc1nc(-c2ccccc2)co1)c1ccncc1 [Compound 13b] | 1.163
O=C(Nc1nc(-c2ccccc2)cs1)c1ccnc(Cl)c1 [Compound 15a] | 3.036
O=C(Nc1nc(-c2ccccc2)co1)c1cccnc1 [Compound 12b] | 1.118
Cc1cc(C(=O)Nc2ncco2)cc(Cl)n1 [Compound 7b] | 1.43

### Prompt Value lookup for logkw; key = Cc1cc(C(=O)Nc2nc(-c3ccccc3)co2)cc(Cl)n1 [Compound 16b]
### Response 2.251

### Prompt Further, for O=C(Nc1nc(-c2ccccc2)co1)c1cnc2ccccc2n1 [Compound 19b] ?
### Response 2.465

### Prompt Further, for O=C(Nc1ncco1)c1ccncc1 [Compound 3b] ?
### Response 0.3955

### Prompt Further, for Cc1cc(C(=O)Nc2nc(-c3ccccc3)cs2)cc(Cl)n1 [Compound 16a] ?
### Response 3.314

### Prompt Further, for O=C(Nc1nc(-c2ccccc2)cs1)c1ccncc1 [Compound 13a] ?
### Response 2.19

### Prompt Further, for O=C(Nc1nccs1)c1cnccn1 [Compound 8a] ?
### Response 1.222

====

- Tested on: Mycobacterium tuberculosis H37Ra ITM-M006710 (ATCC 9431)
- TEST SUMMARY: Antimycobacterial MIC, microdilution broth / Alamar Blue (resazurin)
- Format: cell-based
- APPLIED CONDITIONS: Mycobacterium tuberculosis, 120 h, Middlebrook 7H9, resazurin after 120 h; read-out: Mtb H37Ra MIC
Collected MIC values appear next to each entry.
State just the number; it will be interpreted in µg/mL.

Some solved cases for reference:
COMPOUND | ASSAYED SYSTEM | READOUT UNITS | MEASURED VALUE
Cc1cc(C(=O)Nc2ncco2)ccn1 | Mycobacterium tuberculosis H37Ra ITM-M006710 (ATCC 9431) | µg/mL | 3.91
O=C(Nc1nc(-c2ccccc2)co1)c1cccnc1 [Compound 12b] | Mycobacterium tuberculosis H37Ra ITM-M006710 (ATCC 9431) | µg/mL | 125

// next item, MIC requested
### Prompt Value lookup for MIC; key = O=C(Nc1nc(-c2ccccc2)co1)c1cnccn1 [Compound 17b]
### Response 15.6

====

Collected MIC values appear next to each entry.
- Test system: Mycobacterium tuberculosis H37Ra ITM-M006710 (ATCC 9431)
- TEST SUMMARY: Antimycobacterial MIC, microdilution broth / Alamar Blue (resazurin)
- Format: cell-based
- APPLIED CONDITIONS: Mycobacterium tuberculosis, recalculated from µg/mL; read-out: MICH37Ra
State just the number; it will be interpreted in µM.

Some solved cases for reference:
COMPOUND | MEASURED VALUE
O=C(Nc1nc(-c2ccccc2)cs1)c1ccnc(Cl)c1 [Compound 15a] | 12.4
O=C(Nc1nc(-c2ccccc2)cs1)c1ccncc1 [Compound 13a] | 27.8
Cc1cc(C(=O)Nc2ncco2)ccn1 [Compound 5b] | 19.2
Cc1cncc(C(=O)Nc2ncco2)c1 [Compound 4b] | 38.4

### Prompt Value lookup for MIC; key = O=C(Nc1nc(-c2ccccc2)co1)c1ccnc(Cl)c1 [Compound 15b]
### Response 26.1

### Prompt Further, for O=C(Nc1nc(-c2ccccc2)cs1)c1ccccn1 [Compound 11a] ?
### Response 13.9

### Prompt Further, for O=C(Nc1ncco1)c1ccnc(Cl)c1 [Compound 6b] ?
### Response 14

====

- TEST SUMMARY: Kinetic water solubility (water-induced precipitation of DMSO stock, UHPLC)
- Type: physicochemical
- APPLIED CONDITIONS: water (DMSO stock diluted with water), 18 °C, water, kinetic from dmso stock; read-out: solubility in water
ASSAY ENDPOINT: solubility

### Prompt Value lookup for solubility; key = O=C(Nc1ncco1)c1ccnc(Cl)c1 [Compound 6b]
### Response > 500 µM

====

- Tested on: Mycobacterium tuberculosis H37Ra ITM-M006710 (ATCC 9431)
- TEST SUMMARY: Antimycobacterial MIC, microdilution broth / Alamar Blue (resazurin)
- Format: cell-based
- APPLIED CONDITIONS: Mycobacterium tuberculosis, 120 h, Middlebrook 7H9, resazurin after 120 h; read-out: Mtb H37Ra MIC
Collected MIC values appear next to each entry.
State just the number; it will be interpreted in µg/mL.

COMPOUND | ASSAY ENDPOINT | READOUT UNITS | MEASURED VALUE
O=C(Nc1nccs1)c1ccccn1 [Compound 1a] | MIC | µg/mL | 31.2

### Prompt Value lookup for MIC; key = O=C(Nc1ncco1)c1ccncc1 [Compound 3b]
### Response 15.6

### Prompt Further, for O=C(O)c1cn(C2CC2)c2cc(N3CCNCC3)c(F)cc2c1=O [CIP, ciprofloxacin, reference compound] ?
### Response 0.25

### Prompt Further, for O=C(Nc1nccs1)c1cnccn1 [Compound 8a] ?
### Response 62.5

====

- TEST SUMMARY: RP-UHPLC lipophilicity parameter log k’w
- Assay type: physicochemical
- APPLIED CONDITIONS: RP-UHPLC, acetonitrile/water, log k extrapolated to 0% acetonitrile
ASSAY ENDPOINT: log k’w
Just the number, please, no unit after it.

MOLECULE | log k’w
Cc1cc(C(=O)Nc2ncco2)cc(Cl)n1 | 1.430
O=C(Nc1nc(-c2ccccc2)co1)c1ccnc(Cl)c1 [Compound 15b] | 1.992
O=C(Nc1nc(-c2ccccc2)cs1)c1ccnc(Cl)c1 [Compound 15a] | 3.036
O=C(Nc1ncco1)c1ccccn1 | 0.854
O=C(Nc1ncco1)c1cccnc1 | 0.436

### Prompt Value lookup for log k’w; key = O=C(Nc1nccs1)c1ccnc(Cl)c1
### Response 2.013

====

- Test system: HepG2 cells
- TEST SUMMARY: HepG2 cytotoxicity screening (CellTiter 96)
- Type: cell-based, human
- APPLIED CONDITIONS: SI = IC50 (µM) HepG2 / MICH37Ra (µM)
Collected SI values appear next to each entry.

COMPOUND | SI
O=C(Nc1nc(-c2ccccc2)cs1)c1ccccn1 [Compound 11a] | >7.2
O=C(Nc1ncco1)c1ccnc(Cl)c1 | 47.5

### Prompt Tell me reported SI for O=C(Nc1nc(-c2ccccc2)cs1)c1ccnc(Cl)c1 [Compound 15a] , tested with HepG2 cells.
### Response 8.3

### Prompt Further, for O=C(Nc1nc(-c2ccccc2)cs1)c1ccncc1 [Compound 13a] ?
### Response >3.6

### Prompt Further, for O=C(Nc1nc(-c2ccccc2)co1)c1ccnc(Cl)c1 [Compound 15b] ?
### Response 5.2

### Prompt Further, for Cc1cncc(C(=O)Nc2ncco2)c1 ?
### Response >26.0

### Prompt Further, for Cc1cc(C(=O)Nc2ncco2)cc(Cl)n1 ?
### Response >58.3

### Prompt Further, for O=C(Nc1nc(-c2ccccc2)co1)c1ccccn1 [Compound 11b] ?
### Response >67.8

### Prompt Further, for Cc1cc(C(=O)Nc2ncco2)ccn1 ?
### Response >52.0

Sourced from paper PMC9143880
